System: Mtb H37Ra ITM-M006710 (ATCC 9431)
Assay: Microplate Alamar Blue Assay (MABA) microdilution, Mtb H37Ra
Assay type: cell-based, Mycobacterium tuberculosis
Details: Mycobacterium tuberculosis, pH 6; read-out: MIC Mtb H37Ra
Could you please report measured MIC for the items listed next?

- COC(=O)[C@H](COC(C)(C)C)NC(=O)c1cnccn1: ≥ 500 µg/mL
- COC(=O)C[C@@H](NC(=O)c1cnccn1)C(=O)OC: ≥ 125 µg/mL

Please give MIC for each item listed below.
1. CO[C@H]1/C=C/O[C@@]2(C)Oc3c(C)c(O)c4c(O)c(c(/C=N/N5CCN(C)CC5)c(O)c4c3C2=O)NC(=O)/C(C)=C\C=C\[C@H](C)[C@H](O)[C@@H](C)[C@@H](O)[C@@H](C)[C@H](OC(C)=O)[C@@H]1C [RIF, rifampicin, reference compound]
2. COC(=O)[C@H](COCc1ccccc1)NC(=O)c1cnccn1
3. COC(=O)[C@@H](NC(=O)c1cnccn1)C(C)C [PC-L-Val-Me, methyl (pyrazine-2-carbonyl)-L-valinate]
4. COC(=O)[C@H](CO)NC(=O)c1cnccn1 [PC-L-Ser-Me, methyl (pyrazine-2-carbonyl)-L-serinate]
5. CCOC(=O)C[C@H](NC(=O)c1cnccn1)C(=O)OCC

result:
["0.0016 to 0.0062 µg/mL", "7.81 µg/mL", "≥ 125 µg/mL", "≥ 500 µg/mL", "≥ 125 µg/mL"]

====

Could you please report measured MIC for the items listed next?
Tested on: Mycobacterium aurum DSM 43999 (ATCC 23366)
Assay: Microplate Alamar Blue Assay (MABA) microdilution, M. aurum
Type: cell-based
Details: Mycolicibacterium aurum, pH 6, read-out: MIC M. aurum µg/mL
Answers are plain numbers, in µg/mL.

Use these answered entries as a reference point.
* C[C@H](NC(=O)c1cnccn1)C(=O)O [PC-L-Ala, (pyrazine-2-carbonyl)-L-alanine] | 62.5
* COC(=O)[C@@H](CO)NC(=O)c1cnccn1 [PC-D-Ser-Me, methyl (pyrazine-2-carbonyl)-D-serinate] | 250
* C=C(NC(=O)c1cnccn1)C(=O)OC [PC-MeAcr] | 62.5
* O=C(N[C@@H](CSCc1ccccc1)C(=O)O)c1cnccn1 [PC-L-SBn-Cys] | 125
* O=C(N[C@@H](COCc1ccccc1)C(=O)O)c1cnccn1 [PC-L-OBn-Ser] | 62.5

Please give MIC for each item listed below.
1. COC(=O)[C@H](CCSC)NC(=O)c1cnccn1 [PC-L-Met-Me]
2. CCOC(=O)[C@@H](Cc1c[nH]c2ccccc12)NC(=O)c1cnccn1 [PC-D-Trp-Et]

result:
1: 62.5; 2: 62.5

Please give MIC for each item listed below.
1. COC(=O)[C@H](COC(C)(C)C)NC(=O)c1cnccn1 [PC-L-OtBu-Ser-Me]
2. COC(=O)[C@H](COCc1ccccc1)NC(=O)c1cnccn1 [PC-L-OBn-Ser-Me]
3. COC(=O)C(NC(=O)c1cnccn1)c1ccccc1 [PC-D/L-Pgl-Me]

result:
62.5
62.5
31.2

====

Tested on: Mtb H37Ra ITM-M006710 (ATCC 9431)
Experiment: Microplate Alamar Blue Assay (MABA) microdilution, Mtb H37Ra
Type: cell-based, Mycobacterium tuberculosis
Settings: Mycobacterium tuberculosis, pH 6; read-out: MIC Mtb H37Ra
readout: MIC

- C[C@H](NC(=O)c1cnccn1)C(=O)O [PC-L-Ala, (pyrazine-2-carbonyl)-L-alanine]: ≥ 250 µg/mL
- NC(=O)c1cnccn1 [PZA, pyrazinamide, reference compound]: < 3.91 µg/mL
- CCOC(=O)[C@@H](Cc1c[nH]c2ccccc12)NC(=O)c1cnccn1 [PC-D-Trp-Et]: 62.5 µg/mL
- CC[C@@H](C)[C@@H](NC(=O)c1cnccn1)C(=O)OC [PC-D-Ile-Me]: 250 µg/mL
- COC(=O)[C@H](CCSC)NC(=O)c1cnccn1 [PC-L-Met-Me]: < 3.91 µg/mL

Please give MIC for each item listed below.
1. COC(=O)C(NC(=O)c1cnccn1)c1ccccc1 [PC-D/L-Pgl-Me]
2. CCOC(=O)[C@@H](C)NC(=O)c1cnccn1 [PC-D-Ala-Et, ethyl (pyrazine-2-carbonyl)-D-alaninate]

result:
1. < 1.95 µg/mL
2. ≥ 125 µg/mL

====

Test system: Trichophyton interdigitale CCM 8377 (ATCC 9533)
Test: Antifungal microdilution broth method, TI
Format: cell-based
Details: 48 h, read-out: MIC TI
Could you please report measured MIC for the items listed next?

Use these answered entries as a reference point.
• COC(=O)[C@H](COCc1ccccc1)NC(=O)c1cnccn1 = > 250 µM
• COC(=O)[C@@H](NC(=O)c1cnccn1)[C@@H](C)O = 500 µM
• O=C(N[C@@H](COCc1ccccc1)C(=O)O)c1cnccn1 = > 500 µM
• COC(=O)[C@H](C)NC(=O)c1cnccn1 (racemic) [PC-DL-Ala-Me, methyl (pyrazine-2-carbonyl)alaninate] = > 500 µM
• COC(=O)[C@H](NC(=O)c1cnccn1)C(C)C [PC-D-Val-Me, methyl (pyrazine-2-carbonyl)-D-valinate] = > 500 µM
• CCOC(=O)[C@@H](Cc1c[nH]c2ccccc12)NC(=O)c1cnccn1 = > 500 µM

Please give MIC for each item listed below.
1. COC(=O)[C@@H](CO)NC(=O)c1cnccn1 [PC-D-Ser-Me, methyl (pyrazine-2-carbonyl)-D-serinate]
2. COC(=O)[C@H](COC(C)(C)C)NC(=O)c1cnccn1

result:
1. > 500 µM
2. > 500 µM

====

Test system: Mycobacterium aurum DSM 43999 (ATCC 23366)
Test: Microplate Alamar Blue Assay (MABA) microdilution, M. aurum
Format: cell-based
Conditions: Mycolicibacterium aurum, pH 6.6; read-out: MIC M. aurum
readout: MIC

• O=C(O)c1cn(C2CC2)c2cc(N3CCNCC3)c(F)cc2c1=O [CPX, ciprofloxacin, reference compound] = 0.0078 to 0.0156 µg/mL
• CC[C@H](C)[C@H](NC(=O)c1cnccn1)C(=O)OC = ≥ 500 µg/mL
• CC[C@@H](C)[C@@H](NC(=O)c1cnccn1)C(=O)OC = ≥ 500 µg/mL
• NC(=O)c1cnccn1 [PZA, pyrazinamide, reference compound] = ≥ 500 µg/mL

query: Param readout = MIC; param system = Mycobacterium aurum DSM 43999 (ATCC 23366); param query = CO[C@H]1/C=C/O[C@@]2(C)Oc3c(C)c(O)c4c(O)c(c(/C=N/N5CCN(C)CC5)c(O)c4c3C2=O)NC(=O)/C(C)=C\C=C\[C@H](C)[C@H](O)[C@@H](C)[C@@H](O)[C@@H](C)[C@H](OC(C)=O)[C@@H]1C [RIF, rifampicin, reference compound] ; response: value
result: 0.39 to 0.78 µg/mL

====

Tested on: Staphylococcus epidermidis CCM 4418 (ATCC 12228)
Assay: Antibacterial microdilution broth method, SE
Format: cell-based
Details: 24 h, read-out: MIC SE
readout: MIC

Use these answered entries as a reference point.
* C=C(NC(=O)c1cnccn1)C(=O)OC | > 125 µM
* COC(=O)C(NC(=O)c1cnccn1)c1ccccc1 (centres unmarked) | > 500 µM
* CCOC(=O)C[C@H](NC(=O)c1cnccn1)C(=O)OCC | 500 µM
* C[C@H](NC(=O)c1cnccn1)C(=O)O | > 500 µM

Please give MIC for each item listed below.
1. COC(=O)[C@@H](COC(C)(C)C)NC(=O)c1cnccn1
2. COC(=O)[C@H](NC(=O)c1cnccn1)[C@H](C)O
3. O=C(N[C@@H](CSCc1ccccc1)C(=O)O)c1cnccn1
4. COC(=O)[C@H](COC(C)(C)C)NC(=O)c1cnccn1
5. COC(=O)[C@H](NC(=O)c1cnccn1)[C@H](C)OC(C)(C)C

result:
1: > 500 µM; 2: > 500 µM; 3: 250 µM; 4: > 500 µM; 5: > 500 µM

Please give MIC for each item listed below.
1. CCOC(=O)[C@@H](C)NC(=O)c1cnccn1 [PC-D-Ala-Et, ethyl (pyrazine-2-carbonyl)-D-alaninate]
2. COC(=O)[C@@H](NC(=O)c1cnccn1)[C@@H](C)O
3. COC(=O)[C@H](C)NC(=O)c1cnccn1 (racemic) [PC-DL-Ala-Me, methyl (pyrazine-2-carbonyl)alaninate]
4. O=C(N[C@@H](COCc1ccccc1)C(=O)O)c1cnccn1
5. COC(=O)[C@@H](Cc1ccc(O)cc1)NC(=O)c1cnccn1
6. COC(=O)[C@@H](NC(=O)c1cnccn1)C(C)C [PC-L-Val-Me, methyl (pyrazine-2-carbonyl)-L-valinate]
7. COC(=O)[C@H](CO)NC(=O)c1cnccn1 [PC-L-Ser-Me, methyl (pyrazine-2-carbonyl)-L-serinate]

result:
1: > 500 µM; 2: > 500 µM; 3: > 500 µM; 4: > 500 µM; 5: > 500 µM; 6: > 500 µM; 7: > 500 µM

query: Using the record for COC(=O)[C@@H](CO)NC(=O)c1cnccn1 [PC-D-Ser-Me, methyl (pyrazine-2-carbonyl)-D-serinate] , report its MIC.
result: > 500 µM
